Catalogue of bioavailability readings, one per entry.
Test: Oral bioavailability in cynomolgus monkey
Type: ADME, organism-based, Macaca fascicularis
Conditions: in vivo
Express the reported value numerically, then name its unit.

Before answering, review these 4 worked examples.
INSERT INTO measurements (compound, result) VALUES
  ('CC1(C)NC(=O)N(CCC(COc2ccc(-c3ccc(C#N)cc3)cc2)N(O)C=O)C1=O (stereo not given)', '6%'),
  ('CN1C(=O)N(CCC(COc2ccc(-c3ccc(C#N)cc3)cc2)N(O)C=O)C(=O)C1(C)C (stereo not given)', '6%'),
  ('CN1C(=O)N(CC(COc2ccc(-c3ccc(C#N)cc3)cc2)N(O)C=O)C(=O)C1(C)C (stereo not given)', '23%'),
  ('CC1(C)NC(=O)N(CC(COc2ccc(-c3ccc(C#N)cc3)cc2)N(O)C=O)C1=O (stereo not given)', '110%');

*Q* So what does the record say about bioavailability for N#Cc1ccc(-c2ccc(OCC(CN3C(=O)CNC3=O)N(O)C=O)cc2)cc1 (stereo not given) ?
*A* 100%

----------
Test: Bioavailability determined after oral administration in marmoset
Assay type: ADME, organism-based
Conditions: callitrichinae sp., in vivo
reported.metric: bioavailability (%)
Kindly answer with a numeric value in %, unit omitted.

*Q* So what does the record say about bioavailability for CC1(C)NC(=O)N(CC(COc2ccc(-c3ccc(C#N)cc3)cc2)N(O)C=O)C1=O (stereo unspecified) ?
*A* 85

----------
Test: Half life determined after intravenous administration at a dose of 3 mg/kg in cynomolgus monkey
Format: ADME, organism-based, Macaca fascicularis
Set-up: dose 3 mg/kg, route intravenous
Settings: in vivo
Catalogue of half-life readings, one per entry.
Kindly answer with a numeric value in h, unit omitted.

*Q* So what does the record say about half-life for CN1C(=O)N(CC(COc2ccc(-c3ccc(C#N)cc3)cc2)N(O)C=O)C(=O)C1(C)C (stereo not given) ?
*A* 2.5

*Q* So what does the record say about half-life for N#Cc1ccc(-c2ccc(OCC(CN3C(=O)CNC3=O)N(O)C=O)cc2)cc1 (stereo not given) ?
*A* 7.3

*Q* So what does the record say about half-life for CN1C(=O)N(CCC(COc2ccc(-c3ccc(C#N)cc3)cc2)N(O)C=O)C(=O)C1(C)C (stereo not given) ?
*A* 0.5

*Q* So what does the record say about half-life for CCN1C(=O)N(CC(COc2ccc(-c3ccc(C#N)cc3)cc2)N(O)C=O)C(=O)C1(C)C (stereo not given) ?
*A* 1.8

*Q* So what does the record say about half-life for N#Cc1ccc(-c2ccc(OCC(CN3C(=O)CCC3=O)N(O)C=O)cc2)cc1 (stereo not given) ?
*A* 0.6

*Q* So what does the record say about half-life for Cc1ccc(=O)n(CC(COc2ccc(-c3ccc(C#N)cc3)cc2)N(O)C=O)n1 (stereo not given) ?
*A* 0.5

*Q* So what does the record say about half-life for N#Cc1ccc(-c2ccc(OCC(CN3C(=O)c4ccccc4C3=O)N(O)C=O)cc2)cc1 (stereo not given) ?
*A* 0.3

*Q* So what does the record say about half-life for N#Cc1ccc(-c2ccc(OCC(CSc3ccccc3)N(O)C=O)cc2)cc1 (stereo not given) ?
*A* 0.3

*Q* So what does the record say about half-life for CC1(C)NC(=O)N(CC(COc2ccc(-c3ccc(C#N)cc3)cc2)N(O)C=O)C1=O (stereo not given) ?
*A* 7.7

*Q* So what does the record say about half-life for CC1(C)NC(=O)N(CCC(COc2ccc(-c3ccc(C#N)cc3)cc2)N(O)C=O)C1=O (stereo not given) ?
*A* 12.7
